# Test system: Pichia kudriavzevii
# Assay Notes: Antifungal activity against Candida krusei ATCC 6258 assessed as inhibition of fungal growth measured after 48 hrs by CLSI based agar dilution method
# Assay type: functional
Define the label as t when MIC is strictly less than 8 µg/mL and as f in all remaining cases.

# Compound, Category
data = [
    ("CCOC(=O)NNC(=O)[C@H]1[C@@H]2C[C@@H](O[C@@H]3O[C@H](C)[C@@H](O)[C@H](N)[C@@H]3O)/C=C/C=C/C=C/C=C/C=C/C=C/C=C/[C@H](C)[C@@H](O)[C@@H](C)[C@H](C)OC(=O)C[C@H](O)C[C@H](O)CC[C@@H](O)[C@H](O)C[C@H](O)C[C@](O)(C[C@@H]1O)O2", "t"),
    ("CNCC(=O)N[C@@H]1[C@H](O)[C@H](O[C@H]2/C=C/C=C/C=C/C=C/C=C/C=C/C=C/[C@H](C)[C@@H](O)[C@@H](C)[C@H](C)OC(=O)C[C@H](O)C[C@H](O)CC[C@@H](O)[C@H](O)C[C@H](O)C[C@]3(O)C[C@H](O)[C@@H](C(=O)NCCN)[C@H](C2)O3)O[C@H](C)[C@H]1O", "t"),
    ("CNCC(=O)N[C@@H]1[C@H](O)[C@H](O[C@H]2/C=C/C=C/C=C/C=C/C=C/C=C/C=C/[C@H](C)[C@@H](O)[C@@H](C)[C@H](C)OC(=O)C[C@H](O)C[C@H](O)CC[C@@H](O)[C@H](O)C[C@H](O)C[C@]3(O)C[C@H](O)[C@@H](C(=O)N4CCN(CCOC)CC4)[C@H](C2)O3)O[C@H](C)[C@H]1O", "f"),
    ("C[C@@H]1[C@H](O)[C@@H](C)/C=C/C=C/C=C/C=C/C=C/C=C/C=C/[C@H](O[C@@H]2O[C@H](C)[C@@H](O)[C@H](NC(=O)CCN)[C@@H]2O)C[C@@H]2O[C@](O)(C[C@@H](O)C[C@@H](O)[C@H](O)CC[C@@H](O)C[C@@H](O)CC(=O)O[C@H]1C)C[C@H](O)[C@H]2C(=O)NCCO", "t"),
    ("CNCC(=O)N[C@@H]1[C@H](O)[C@H](O[C@H]2/C=C/C=C/C=C/C=C/C=C/C=C/C=C/[C@H](C)[C@@H](O)[C@@H](C)[C@H](C)OC(=O)C[C@H](O)C[C@H](O)CC[C@@H](O)[C@H](O)C[C@H](O)C[C@]3(O)C[C@H](O)[C@@H](C(=O)N(C)CCO)[C@H](C2)O3)O[C@H](C)[C@H]1O", "t"),
    ("CC(=O)NNC(=O)[C@H]1[C@@H]2C[C@@H](O[C@@H]3O[C@H](C)[C@@H](O)[C@H](NC(=O)CN)[C@@H]3O)/C=C/C=C/C=C/C=C/C=C/C=C/C=C/[C@H](C)[C@@H](O)[C@@H](C)[C@H](C)OC(=O)C[C@H](O)C[C@H](O)CC[C@@H](O)[C@H](O)C[C@H](O)C[C@](O)(C[C@@H]1O)O2", "t"),
    ("CNCC(=O)N[C@@H]1[C@H](O)[C@H](O[C@H]2/C=C/C=C/C=C/C=C/C=C/C=C/C=C/[C@H](C)[C@@H](O)[C@@H](C)[C@H](C)OC(=O)C[C@H](O)C[C@H](O)CC[C@@H](O)[C@H](O)C[C@H](O)C[C@]3(O)C[C@H](O)[C@@H](C(=O)N4CCN(CCS(C)(=O)=O)CC4)[C@H](C2)O3)O[C@H](C)[C@H]1O", "f"),
    ("CNCC(=O)N[C@@H]1[C@H](O)[C@H](O[C@H]2/C=C/C=C/C=C/C=C/C=C/C=C/C=C/[C@H](C)[C@@H](O)[C@@H](C)[C@H](C)OC(=O)C[C@H](O)C[C@H](O)CC[C@@H](O)[C@H](O)C[C@H](O)C[C@]3(O)C[C@H](O)[C@@H](C(=O)N(C)CCCO)[C@H](C2)O3)O[C@H](C)[C@H]1O", "t"),
    ("CNCCOCC(=O)N[C@@H]1[C@H](O)[C@H](O[C@H]2/C=C/C=C/C=C/C=C/C=C/C=C/C=C/[C@H](C)[C@@H](O)[C@@H](C)[C@H](C)OC(=O)C[C@H](O)C[C@H](O)CC[C@@H](O)[C@H](O)C[C@H](O)C[C@]3(O)C[C@H](O)[C@@H](C(=O)N4CCN(CCO)CC4)[C@H](C2)O3)O[C@H](C)[C@H]1O", "f"),
    ("CNCC(=O)N[C@@H]1[C@H](O)[C@H](O[C@H]2/C=C/C=C/C=C/C=C/C=C/C=C/C=C/[C@H](C)[C@@H](O)[C@@H](C)[C@H](C)OC(=O)C[C@H](O)C[C@H](O)CC[C@@H](O)[C@H](O)C[C@H](O)C[C@]3(O)C[C@H](O)[C@@H](C(=O)N4CCC(O)CC4)[C@H](C2)O3)O[C@H](C)[C@H]1O", "t"),
    ("C[C@@H]1[C@H](O)[C@@H](C)/C=C/C=C/C=C/C=C/C=C/C=C/C=C/[C@H](O[C@@H]2O[C@H](C)[C@@H](O)[C@H](N)[C@@H]2O)C[C@@H]2O[C@](O)(C[C@@H](O)C[C@@H](O)[C@H](O)CC[C@@H](O)C[C@@H](O)CC(=O)O[C@H]1C)C[C@H](O)[C@H]2C(=O)NNC(=O)c1ccc(Cl)cc1", "f"),
]

====

# Tested on: Pichia kudriavzevii
# Assay Notes: Antifungal activity against Candida krusei ATCC 6258 assessed as inhibition of fungal growth measured after 48 hrs by CLSI based agar dilution method
# Format: functional
Define the label as met when MIC is strictly less than 1 µg/mL and as not met in all remaining cases.

# Compound, Category
measured = [
    ("C[C@@H]1[C@H](O)[C@@H](C)/C=C/C=C/C=C/C=C/C=C/C=C/C=C/[C@H](O[C@@H]2O[C@H](C)[C@@H](O)[C@H](NC(=O)CN)[C@@H]2O)C[C@@H]2O[C@](O)(C[C@@H](O)C[C@@H](O)[C@H](O)CC[C@@H](O)C[C@@H](O)CC(=O)O[C@H]1C)C[C@H](O)[C@H]2C(=O)NCCCN(C)C", "not met"),
    ("C[C@@H]1[C@H](O)[C@@H](C)/C=C/C=C/C=C/C=C/C=C/C=C/C=C/[C@H](O[C@@H]2O[C@H](C)[C@@H](O)[C@H](NC(=O)CCN)[C@@H]2O)C[C@@H]2O[C@](O)(C[C@@H](O)C[C@@H](O)[C@H](O)CC[C@@H](O)C[C@@H](O)CC(=O)O[C@H]1C)C[C@H](O)[C@H]2C(=O)NCCN(C)C", "not met"),
    ("CNCC(=O)N[C@@H]1[C@H](O)[C@H](O[C@H]2/C=C/C=C/C=C/C=C/C=C/C=C/C=C/[C@H](C)[C@@H](O)[C@@H](C)[C@H](C)OC(=O)C[C@H](O)C[C@H](O)CC[C@@H](O)[C@H](O)C[C@H](O)C[C@]3(O)C[C@H](O)[C@@H](C(=O)NCCO)[C@H](C2)O3)O[C@H](C)[C@H]1O", "met"),
    ("COC(=O)NNC(=O)[C@H]1[C@@H]2C[C@@H](O[C@@H]3O[C@H](C)[C@@H](O)[C@H](N)[C@@H]3O)/C=C/C=C/C=C/C=C/C=C/C=C/C=C/[C@H](C)[C@@H](O)[C@@H](C)[C@H](C)OC(=O)C[C@H](O)C[C@H](O)CC[C@@H](O)[C@H](O)C[C@H](O)C[C@](O)(C[C@@H]1O)O2", "met"),
    ("C[C@@H]1[C@H](O)[C@@H](C)/C=C/C=C/C=C/C=C/C=C/C=C/C=C/[C@H](O[C@@H]2O[C@H](C)[C@@H](O)[C@H](NC(=O)CN)[C@@H]2O)C[C@@H]2O[C@](O)(C[C@@H](O)C[C@@H](O)[C@H](O)CC[C@@H](O)C[C@@H](O)CC(=O)O[C@H]1C)C[C@H](O)[C@H]2C(=O)NCCCO", "met"),
    ("CNCC(=O)N[C@@H]1[C@H](O)[C@H](O[C@H]2/C=C/C=C/C=C/C=C/C=C/C=C/C=C/[C@H](C)[C@@H](O)[C@@H](C)[C@H](C)OC(=O)C[C@H](O)C[C@H](O)CC[C@@H](O)[C@H](O)C[C@H](O)C[C@]3(O)C[C@H](O)[C@@H](C(=O)NNC(C)=O)[C@H](C2)O3)O[C@H](C)[C@H]1O", "not met"),
    ("CNCC(=O)N[C@@H]1[C@H](O)[C@H](O[C@H]2/C=C/C=C/C=C/C=C/C=C/C=C/C=C/[C@H](C)[C@@H](O)[C@@H](C)[C@H](C)OC(=O)C[C@H](O)C[C@H](O)CC[C@@H](O)[C@H](O)C[C@H](O)C[C@]3(O)C[C@H](O)[C@@H](C(=O)N4CCN(C(=O)COCCOC)CC4)[C@H](C2)O3)O[C@H](C)[C@H]1O", "not met"),
    ("CNCC(=O)N[C@@H]1[C@H](O)[C@H](O[C@H]2/C=C/C=C/C=C/C=C/C=C/C=C/C=C/[C@H](C)[C@@H](O)[C@@H](C)[C@H](C)OC(=O)C[C@H](O)C[C@H](O)CC[C@@H](O)[C@H](O)C[C@H](O)C[C@]3(O)C[C@H](O)[C@@H](C(=O)N4CCN(C(C)(C)CO)CC4)[C@H](C2)O3)O[C@H](C)[C@H]1O", "not met"),
    ("C[C@@H]1[C@H](O)[C@@H](C)/C=C/C=C/C=C/C=C/C=C/C=C/C=C/[C@H](O[C@@H]2O[C@H](C)[C@@H](O)[C@H](NC(=O)CN)[C@@H]2O)C[C@@H]2O[C@](O)(C[C@@H](O)C[C@@H](O)[C@H](O)CC[C@@H](O)C[C@@H](O)CC(=O)O[C@H]1C)C[C@H](O)[C@H]2C(=O)N1CCN(CCO)CC1", "not met"),
    ("CNCC(=O)N[C@@H]1[C@H](O)[C@H](O[C@H]2/C=C/C=C/C=C/C=C/C=C/C=C/C=C/[C@H](C)[C@@H](O)[C@@H](C)[C@H](C)OC(=O)C[C@H](O)C[C@H](O)CC[C@@H](O)[C@H](O)C[C@H](O)C[C@]3(O)C[C@H](O)[C@@H](C(=O)N4CCN(CC(C)(C)O)CC4)[C@H](C2)O3)O[C@H](C)[C@H]1O", "not met"),
]
